Please go through the items and note down their IC50.
Molecular target: dihydroorotate dehydrogenase (DHODH) (Homo sapiens, UniProt Q02127)
Sequence (Q02127 whole entry): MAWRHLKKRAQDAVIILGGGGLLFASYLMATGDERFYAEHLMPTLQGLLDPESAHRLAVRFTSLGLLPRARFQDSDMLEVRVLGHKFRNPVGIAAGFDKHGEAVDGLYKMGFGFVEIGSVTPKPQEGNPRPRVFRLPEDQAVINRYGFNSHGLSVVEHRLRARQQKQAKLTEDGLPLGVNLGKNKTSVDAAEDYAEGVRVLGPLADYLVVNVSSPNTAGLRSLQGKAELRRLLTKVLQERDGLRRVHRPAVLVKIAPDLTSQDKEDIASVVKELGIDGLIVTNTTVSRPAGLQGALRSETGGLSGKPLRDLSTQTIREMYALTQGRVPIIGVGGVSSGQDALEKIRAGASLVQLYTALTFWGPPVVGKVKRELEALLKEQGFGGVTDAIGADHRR
Test: colorimetric DCIP reduction enzyme assay ([…] DHODH, L-DHO, coenzyme Q10)
Type: biochemical
Give bare numbers, in µM.

* C/C(O)=C(\C#N)C(=O)Nc1ccc(OC(F)(F)F)cc1 [CF3O-TF] | 0.33
* C/C(O)=C(\C#N)C(=O)Nc1cc(C(F)(F)F)cc(C(F)(F)F)c1 [di-CF3-TF] | 1.32

The record that follows has no IC50 shown yet.
INPUT: Param request: IC50 | system dihydroorotate dehydrogenase (DHODH) (Homo sapiens, UniProt Q02127) | item C/C(O)=C(\C#N)C(=O)Nc1ccc(S(F)(F)(F)(F)F)cc1 [SF5-TF]
OUTPUT: 0.58
